# credit: PubChem BioAssay

Consider the following compounds and their measured fold change readings.
assay-protocol: viability loss with induced miR-34 in A549 – imaging, A549 dox-inducible miR-34, nuclei and caspase counts, primary screen (AID 1347080)
reported-conditions: A549 miR-34 inducible, Hoechst nuclei count, 48 h; measured here: relative caspase fold change +Dox/-Dox
No unit in the answer, please; the number alone is enough.

Some solved cases for reference:
| compound | fold change |
| --- | --- |
| C[C@H](NC[C@H](O)CP(=O)(O)Cc1ccccc1)c1ccc(Cl)c(Cl)c1 | 1.04 |
| CC1(C)C(=O)N(CCN2CCC(C(=O)c3ccc(F)cc3)CC2)c2ccccc21 | 1.27 |
| Cc1nc(C(=O)NCC(=O)O)c(O)c2ccc(Oc3ccccc3)cc12 | 0.804 |
| CS(=O)(=O)c1ccc(Cn2c3c(c4cc(F)cc(F)c42)CCCC3CC(=O)O)cc1 (centres undefined) | 0.675 |
| CCCCC#Cc1nc(NC)c2ncn([C@@H]3O[C@H](CO)[C@@H](O)[C@H]3O)c2n1 | 0.777 |

Dear colleague, I am looking for the recorded fold change of the following compound: C=CCN(C)CCCCCCOc1ccc(C(=O)c2ccc(Br)cc2)c(F)c1
0.704

Dear colleague, I am looking for the recorded fold change of the following compound: NC(C(=O)O)c1cc(O)ccc1Cl (centres undefined)
0.855

Dear colleague, I am looking for the recorded fold change of the following compound: CCOC(=O)C12CC1/C(=N\O)c1ccccc1O2 (centres undefined)
1.17

Dear colleague, I am looking for the recorded fold change of the following compound: Cc1cnc(-c2ccccc2C(C)C)nc1NCc1ccc(-n2ccnn2)cc1
0.465

====

Consider the following compounds and their measured cell count readings.
assay-protocol: viability loss with induced miR-34 in A549 – imaging, A549 dox-inducible miR-34, nuclei and caspase counts, primary screen (AID 1347080)
reported-conditions: A549 miR-34 inducible, Hoechst nuclei count, 48 h; measured here: total cells with miR-34 induction; stronger effect = lower value
No unit in the answer, please; the number alone is enough.

Some solved cases for reference:
| input-smiles | quantity-name | result-number |
| --- | --- | --- |
| Cc1cccc(C)c1NC(=O)C[N+](C)(C)C | cell count | 9170 |
| O=C(NC1CCOCC1)c1ccc(-c2cc(-c3cn[nH]c3-c3ccccn3)ccn2)cc1 | cell count | 8800 |
| O=C(Nc1cccc(Cl)c1)Nc1ncc(CCNc2ncnc3ccsc23)s1 | cell count | 2320 |

Dear colleague, I am looking for the recorded cell count of the following compound: CCCCC[C@H](O)/C=C/[C@@H]1[C@@H](C/C=C\CCCCCC(=O)O)[C@@H](O)C[C@H]1O
5260

Dear colleague, I am looking for the recorded cell count of the following compound: Cc1nn(-c2ccccc2)c(C)c1/C=N/N1CCN(Cc2ccccc2)CC1
8730

Dear colleague, I am looking for the recorded cell count of the following compound: Cn1cnc(=N)c2[nH]cnc21
9400

Dear colleague, I am looking for the recorded cell count of the following compound: COc1cc2c(cc1OC)CN(CCc1ccc(NC(=O)c3cc(OC)c(OC)cc3NC(=O)c3cnc4ccccc4c3)cc1)CC2
8470

Dear colleague, I am looking for the recorded cell count of the following compound: CCCCCCCCCCCCCC(=O)O
6710

Dear colleague, I am looking for the recorded cell count of the following compound: CC/C=C\C/C=C\C/C=C\C/C=C\C/C=C\CCCC(=O)O[C@H](COCCCCCCCCCCCCCCCC)COP(=O)([O-])OCC[N+](C)(C)C
5330

Dear colleague, I am looking for the recorded cell count of the following compound: CCCCC[C@H](O)/C=C/[C@H]1[C@H](O)CC(=O)[C@@H]1C/C=C\CCCC(=O)NC(CO)CO
6080

====

assay-protocol: viability loss in pontine glioma line – cell-based, SU-DIPG-XIII, MIPE4.0, CellTiter-Glo, qHTS, dose response (AID 1347061);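 also: cells exposed to compound for 48 hours before readout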
reported-conditions: CellTiter-Glo ATP luminescence
Results filed as inconclusive are left out. Activity calls are given as the source filed them. No cut-off is given here; in the data, nearly all actives have AC50 up to about 37 µM.
Pick one: true (1) for active, false (0) for inactive

| compound | label |
| --- | --- |
| COc1ccc2c(Oc3ccc(NC(=O)c4c(C)n(CC(C)(C)O)n(-c5ccccc5)c4=O)nc3)ccnc2c1 | false (0) |
| Cc1ccc2c(c1)c1c(n2CCc2ccc(C)nc2)CCN(C)C1 | false (0) |
| CN1C(=O)C[C@H](C(=O)N[C@@H](Cc2cnc[nH]2)C(=O)N2CCC[C@H]2C(N)=O)NC1=O | false (0) |
| COc1ccccc1N1CCN(CCN(C(=O)C2CCCCC2)c2ccccn2)CC1 | false (0) |
| CN1CCc2c(n(Cc3ccc(C(=O)NO)cc3)c3ccccc23)C1 | false (0) |
| NC(N)=Nc1nc(CSCCC(N)=NS(N)(=O)=O)cs1 | false (0) |
| Cn1cc(C[C@@H](N)C(=O)O)c2ccccc21 | false (0) |
| C=C1C(=O)OC(CCCCCCCC)C1C(=O)O (stereo not drawn) | false (0) |

Hello, I am checking results. What call was entered for O=C(NOC[C@H](O)CO)c1ccc(F)c(F)c1Nc1ccc(I)cc1F ?
true (1)

Hello, I am checking results. What call was entered for Cn1c(Nc2ccc(C(F)(F)F)cc2)nc2cc(Oc3ccnc(-c4ncc(C(F)(F)F)[nH]4)c3)ccc21 ?
true (1)

Hello, I am checking results. What call was entered for Nc1ccc(C(=O)Nc2cccc(-c3nc(N4CCOCC4)c4oc5ncccc5c4n3)c2)cn1 ?
true (1)

Hello, I am checking results. What call was entered for c1cc(CN2CCCNCCNCCCNCC2)ccc1CN1CCCNCCNCCCNCC1 ?
false (0)

Hello, I am checking results. What call was entered for CC(C)n1cnc2c(NCCc3ccc(O)cc3)nc(-c3csc4ccccc34)nc21 ?
true (1)

Hello, I am checking results. What call was entered for O=C(Nc1ccccc1Br)N[C@@H]1CCN(c2ccc(C(F)(F)F)cn2)C1 ?
false (0)

====

assay-protocol: MELAS cybrid and Rieske KO viability enhancers – cell-based, MELAS cybrids, Rieske KO mouse fibroblasts, CellTiter-Glo, primary screen (AID 1508586);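 also: z relative to plate mean and SD of compound and empty wells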
reported-conditions: MELAS cybrid survival, low glucose, CellTiter-Glo 48 h; stronger effect = higher value
Calls of active or inactive are those of the source.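 The calls were made as follows: active = mean z-score across replicates of 1.96 or higher in either the MELAS or the Rieske mutant cell line; inactive = the rest.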
quantity-name: z-score

Some solved cases for reference:
| input-smiles | z-score |
| --- | --- |
| C=CC(=O)Nc1ccc2ncnc(Nc3ccc(OCc4cccc(F)c4)c(Cl)c3)c2c1 | -0.263 (inactive) |
| Cc1ccc(S(=O)(=O)OCC(=O)Nc2ccc(C(=O)O)c(O)c2)cc1 | -0.344 (inactive) |
| CCOc1ccn(-c2ccc(F)cc2)c(=O)c1C(=O)Nc1ccc(Oc2ccnc(N)c2Cl)c(F)c1 | -0.348 (inactive) |
| CN1CCN(CCOc2cc(OC3CCOCC3)c3c(Nc4c(Cl)ccc5c4OCO5)ncnc3c2)CC1 | 0.931 (inactive) |
| Cn1cc(-c2ccc3c(c2)CCN3C(=O)Cc2cccc(C(F)(F)F)c2)c2c(N)ncnc21 | -0.412 (inactive) |

Dear colleague, I am looking for the recorded z-score of the following compound: Cn1cnc2c(F)c(Nc3ccc(Br)cc3Cl)c(C(=O)NOCCO)cc21
-0.103 (inactive)

Dear colleague, I am looking for the recorded z-score of the following compound: CCc1c(O)cc(O)c(C(=O)c2ccc(OCCN3CCOCC3)c(OC)c2)c1CC(=O)N(CCOC)CCOC
-0.316 (inactive)

Dear colleague, I am looking for the recorded z-score of the following compound: Cn1cc(-c2ccc3ncc(Cc4ccc5ncccc5c4)n3n2)cn1
-0.376 (inactive)

Dear colleague, I am looking for the recorded z-score of the following compound: O=C(Nc1nc2cccc(-c3ccc(CN4CCS(=O)(=O)CC4)cc3)n2n1)C1CC1
-0.57 (inactive)

====

assay-protocol: viability loss in pontine glioma line – cell-based, SU-DIPG-XIII, MIPE5.0, CellTiter-Glo, qHTS, dose response (AID 1347064);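 as to AC50: cells exposed to compound for 48 hours before the viability read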
reported-conditions: CellTiter-Glo ATP luminescence
Inconclusive results are not listed. Calls of active or inactive are those of the source. The limit is not given here; nearly all actives have AC50 up to about 23 µM.
quantity-name: AC50

| compound | result |
| --- | --- |
| COc1ccc(C(=O)CC2(O)C(=O)Nc3c(Cl)ccc(Cl)c32)cc1 (centres undefined) | 11.8 µM (active) |
| Cc1cc(OCCCc2c3n(c4c(-c5c(C)nn(C)c5C)c(Cl)ccc24)[C@H](C)CN(c2cn(C)c4ccc(C(=O)O)cc24)C3=O)cc(C)c1Cl | 5.25 µM (active) |
| Cc1ccc(-n2nc(C(C)(C)C)cc2NC(=O)NCc2cc(F)ccc2Oc2ccc3c(cnn3CCO)c2)cc1 | 6.61 µM (active) |
| O=C(CCCCCCC(=O)N/N=C/c1ccc(N(c2ccccc2)c2ccccc2)cc1)NO | 20.9 µM (active) |

Dear colleague, I am looking for the recorded AC50 of the following compound: COc1cc(O)c2c(c1)C1OC1C[C@H](O)[C@H](O)C(=O)/C=C\C[C@H](C)OC2=O (some centres undefined)
0.661 µM (active)

Dear colleague, I am looking for the recorded AC50 of the following compound: Cc1ccc(-n2[nH]c(C)c(N=Nc3cccc(-c4cccc(C(=O)O)c4)c3O)c2=O)cc1C
inactive

Dear colleague, I am looking for the recorded AC50 of the following compound: C[C@@H]1CC(=O)Nc2cccc(-c3cnn(C(C)(C)C)c3)c2N1
inactive

Dear colleague, I am looking for the recorded AC50 of the following compound: CN(C)c1ccc2cc(C(=O)N[C@@H](CCCN=C(N)CCl)C(=O)NCc3ccccc3)ccc2c1
2.63 µM (active)

Dear colleague, I am looking for the recorded AC50 of the following compound: O=C(O)/C(S)=C/c1ccc(I)cc1
inactive
